test: 384-well plate pilot, post-Golgi transport modulator project, inhibition of yeast transport mutant growth (AID 636); conditions: absorbance 615 nm, about 18 h, active compounds read high; further: test concentration not given here
Reported inhibition values follow for various molecules
Expressed in %, but write only the number.

Challenge: May I ask what inhibition has been recorded for Cc1[nH]c2ccccc2c1Cc1nnc(SCC(=O)NCc2ccco2)o1 ?
Response given: 1.6

Challenge: May I ask what inhibition has been recorded for O=C1NCC(COCc2ccccc2)O1 (configuration not stated) ?
Response given: -5.6

Challenge: May I ask what inhibition has been recorded for CCOc1ccccc1C(=O)Nn1c(C2CCC2)nc2ccccc2c1=O ?
Response given: -4.11

---

assay: 384-well plate pilot, post-Golgi transport modulator project, inhibition of yeast transport mutant growth (AID 636); conditions: absorbance 615 nm, about 18 h, active compounds read high; further: test concentration not given here
Reported inhibition values follow for various molecules
Expressed in %, but write only the number.

Challenge: May I ask what inhibition has been recorded for COc1cccc(C(=O)NC2=NCCS2)c1 ?
Response given: -4.11

Challenge: May I ask what inhibition has been recorded for CC1(C)NC(=O)N(CCCOc2ccc(Br)cc2Cl)C1=O ?
Response given: -3.82

Challenge: May I ask what inhibition has been recorded for CC(CN1CCCCC1)OC(=O)c1ccc(Cl)cc1Cl (stereo unspecified) ?
Response given: 0.53

Challenge: May I ask what inhibition has been recorded for CCOc1ccc(NC(=O)c2ccncc2)cc1 ?
Response given: -2.89

Challenge: May I ask what inhibition has been recorded for O=C(CS(=O)(=O)c1cn(Cc2ccc(Cl)cc2)c2ccccc12)N1CCOCC1 ?
Response given: -1.87

Query molecule follows.
Challenge: May I ask what inhibition has been recorded for COc1ccc(C)cc1C(=O)CCC(=O)Nc1ccccc1N1CCOCC1 ?
Response given: -6.27
